- tgt: CLTC (clathrin heavy chain 1, Clathrin-propeller domain) (human) (UniProt Q00610)
- Sequence (Q00610 whole entry, the tested form may be a part): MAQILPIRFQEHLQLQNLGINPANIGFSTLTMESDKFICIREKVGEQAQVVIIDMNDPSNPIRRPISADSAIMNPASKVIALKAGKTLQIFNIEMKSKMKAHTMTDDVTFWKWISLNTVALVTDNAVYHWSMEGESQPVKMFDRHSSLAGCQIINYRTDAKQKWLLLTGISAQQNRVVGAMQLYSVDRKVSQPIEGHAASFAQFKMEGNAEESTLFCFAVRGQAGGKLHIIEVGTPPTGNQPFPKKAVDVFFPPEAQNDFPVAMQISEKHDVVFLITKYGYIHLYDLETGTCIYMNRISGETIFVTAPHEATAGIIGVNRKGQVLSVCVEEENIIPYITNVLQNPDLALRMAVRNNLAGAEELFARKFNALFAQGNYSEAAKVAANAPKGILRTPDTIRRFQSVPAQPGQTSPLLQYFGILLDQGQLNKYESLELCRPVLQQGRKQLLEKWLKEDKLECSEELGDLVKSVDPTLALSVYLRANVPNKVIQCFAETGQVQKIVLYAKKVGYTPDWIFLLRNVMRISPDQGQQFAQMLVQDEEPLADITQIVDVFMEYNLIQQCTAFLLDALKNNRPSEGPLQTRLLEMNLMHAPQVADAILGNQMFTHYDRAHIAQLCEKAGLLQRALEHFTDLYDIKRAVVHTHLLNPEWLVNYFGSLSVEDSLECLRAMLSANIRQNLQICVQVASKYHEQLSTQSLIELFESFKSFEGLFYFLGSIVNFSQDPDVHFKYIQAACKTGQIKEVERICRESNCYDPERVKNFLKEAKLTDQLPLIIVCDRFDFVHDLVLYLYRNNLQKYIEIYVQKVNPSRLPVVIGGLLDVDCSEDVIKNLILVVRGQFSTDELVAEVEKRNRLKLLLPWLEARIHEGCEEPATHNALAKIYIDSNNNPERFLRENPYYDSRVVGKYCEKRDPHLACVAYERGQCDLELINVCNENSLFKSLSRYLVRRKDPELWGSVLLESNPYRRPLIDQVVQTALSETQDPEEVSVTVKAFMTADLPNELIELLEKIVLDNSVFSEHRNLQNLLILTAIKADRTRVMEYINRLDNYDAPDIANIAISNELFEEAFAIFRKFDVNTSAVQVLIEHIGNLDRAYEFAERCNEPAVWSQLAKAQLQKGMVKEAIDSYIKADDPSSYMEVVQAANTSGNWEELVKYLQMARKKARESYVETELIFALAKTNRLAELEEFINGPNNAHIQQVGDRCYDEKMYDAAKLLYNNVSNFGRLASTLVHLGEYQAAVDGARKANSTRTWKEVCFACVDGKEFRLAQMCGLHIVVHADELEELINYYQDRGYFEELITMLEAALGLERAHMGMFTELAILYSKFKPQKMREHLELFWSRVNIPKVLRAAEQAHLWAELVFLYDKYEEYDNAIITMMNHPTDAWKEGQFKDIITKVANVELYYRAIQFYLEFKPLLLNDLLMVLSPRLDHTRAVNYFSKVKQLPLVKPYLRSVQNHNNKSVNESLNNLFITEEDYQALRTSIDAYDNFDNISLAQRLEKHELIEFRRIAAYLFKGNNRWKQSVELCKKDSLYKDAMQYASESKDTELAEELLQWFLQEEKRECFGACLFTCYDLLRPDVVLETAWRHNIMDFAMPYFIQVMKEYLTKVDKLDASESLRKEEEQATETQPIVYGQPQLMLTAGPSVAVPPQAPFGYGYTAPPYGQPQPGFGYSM
- test summary: fluorescence polarisation; competition: unlabelled peptide in serial dilution against the protein domain (master mix at four times the KD) with its FITC-labelled probe peptide; 50 mM KPO4 or NaPO4 pH 7.5; Ki calculated from IC50
Where no end group is shown, it is not given here. [ ]: non-standard residue; d: D form. pT = C[C@@H](OP(=O)(O)O)[C@H](N)C(=O)O
reported endpoint: Ki (µM)

[[record]]
binder = "Ac-LIDLPLIDFCDTPEAHY [GTSE1 645-660 peptide]"
observed = 39


(I) Ac-YVSGNLIDLYGNQGLP [MITF 256-271 peptide]
(II) Ac-LIDLPLIDFCD[pT]PEAHY [GTSE1 645-660 peptide, phosphothreonine]
(III) Ac-YVSGNLIDLCGNQGLP [MITF 256-271 peptide, Y265C]
stdin: Please list the entries, largest Ki first. // rank by listing labels in the order requested
stdout: III, I, II
(III: 100 µM, I: 63 µM, II: 34 µM)
